target: T1, human MSLN-FL-his protein (human, UniProt Q13421 296-580); experiment: ELISA, coated antigen, antibody 0.0002 nM
T1 construct: Made in HEK293E cells, purified on nickel column; also called hMSLN-FL-his; human MSLN full-length protein; not shown: His tag
T1 sequence (Q13421 other isoform, or with tags, fused parts or gaps): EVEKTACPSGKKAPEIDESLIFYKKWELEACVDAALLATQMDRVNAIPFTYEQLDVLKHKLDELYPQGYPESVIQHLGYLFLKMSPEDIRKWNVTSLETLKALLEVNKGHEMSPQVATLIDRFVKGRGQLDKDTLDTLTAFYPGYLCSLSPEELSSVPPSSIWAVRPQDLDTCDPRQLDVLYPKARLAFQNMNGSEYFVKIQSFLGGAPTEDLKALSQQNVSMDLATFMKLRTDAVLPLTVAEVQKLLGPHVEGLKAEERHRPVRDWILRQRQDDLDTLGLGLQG
reportedMetric: OD450
Output: the number by itself.

Would you please look over these solved cases?
# binder, OD450
measured = [
    ("S009-F7.12.13 chimeric antibody (antibody, human IgG1, kappa, V domains shown, Human-murine chimeric antibody, human IgG1/kappa constant regions) VH: EVQLQQSGPELVKPGASVKIPCKASGYTFTDYNMDWVKQSHGKGLEWIGDINPNTDDTIYNQKFNGKATLTVDKSSSTAYMELRSLTSEDTAVYYCSRRLIGTGYFDVWGTGTTVTVSS VL: QIVLTQSPAIMSASPGEKVTLTCSASSSVISTYLCWYRQKPGSSPELWIYSTSNLASGVPARFSGSGSGTSYSLTISSMEAEDAASYFCHQWSNYPYTFGGGTKLGMKR", 0.15),
    ("S009-F7.26.15 chimeric antibody (antibody, human IgG1, kappa, V domains shown, Human-murine chimeric antibody, human IgG1/kappa constant regions) VH: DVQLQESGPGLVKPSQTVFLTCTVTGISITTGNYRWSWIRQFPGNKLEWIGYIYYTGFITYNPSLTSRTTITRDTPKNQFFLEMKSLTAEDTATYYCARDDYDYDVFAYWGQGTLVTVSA VL: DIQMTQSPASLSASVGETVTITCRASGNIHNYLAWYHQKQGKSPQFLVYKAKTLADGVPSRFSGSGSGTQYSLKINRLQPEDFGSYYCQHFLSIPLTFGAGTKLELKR", 0.25),
    ("S009-F7.18.10 chimeric antibody (antibody, human IgG1, kappa, V domains shown, Human-murine chimeric antibody, human IgG1/kappa constant regions) VH: QVQLQQSGAELVRPGTSVKVSCKASGYAFTNYLIEWVKQRPGQGLEWIGVINPGSGGTKYNEKFKGKATLTADKSSSTAYMQLSSLTSEDSAVYFCASDYDYDPFAYWGQGTLVTVSA VL: DIVMTQSHKFMSTSVGDRVSITCKASQDVSTAVAWYQRKPGQSPKLLIYWASTRHTGVPDRFTGSGSGTDYTLTISYMQAEDLALYYCQQHYSTPYTFGGGTKLEIKR", 0.31),
    ("S009-F7.65.13 chimeric antibody (antibody, human IgG1, kappa, V domains shown, Human-murine chimeric antibody, human IgG1/kappa constant regions) VH: EVQLQQSGPELVKPGTSVKILCKASGDTFTAYNMDWVKQRHGQSLEWIGDINPNTDSTIYNQKFEGKAILTVDKSSSTAYMELRSLTSEDTAVYYCARRKLGRGYFDYWGQGTTLTVSS VL: QIVLTQSPAIMSASPGEKVTMTCSVNLSVRYIYWYQQKPGSSPRLLIHDTSNLASGVPVRFSGSGSGTSYSLTISRMEAEDAATYYCQQWSSFPYTFGGGTKLEIKR", 0.24),
    ("S009-F7.6.17 chimeric antibody (antibody, human IgG1, kappa, V domains shown, Human-murine chimeric antibody, human IgG1/kappa constant regions) VH: QVQLQQSGAELARPGASVKMSCKASGYTFTTYTMHWVKQRPGQGLEWIGYISPTGDFTKYNQKFKDKATLTTDKSSNTAFMQLSSLTSEDSAVYYCARWNGTVWFAYWGQGTLVTVSA VL: DIVMTQSQKFMSTSVGDRVTVTCKASQALGTNVAWYQQKPGQSPKVLIYSASYRYSGVPYRFAGGGSGTDFTLTITNVQSEDLAEYFCQQYNNYPLTFGAGTKLELKR", 0.22),
]

Task item: # OD450 lookup, item S009-F7.69.8 chimeric antibody (antibody, human IgG1, kappa, V domains shown, Human-murine chimeric antibody, human IgG1/kappa constant regions) VH: EVHLQQSGPELVKPGASVRIPCKASGYTFTDYNMDWVKQSHGKSLEWIGDINPDNGGTIYTQKFKGKATLTVDKSSSTAYMELRSLTSEDTAVYYCARRLHYYGSSGLDYWGQGTTLTVSS VL: DIQMTQSPASLSAYVGETVTITCRASGNIHNYLAWYQQKQGKSPQLLVYNAKTLADGVPSRFSGSGSGTQYSLKINSLQPEDFGSYYCQHFWSTVWTFGGGTKLEIKR
Reply: 0.13

Task item: # OD450 lookup, item S009-F7.30.5 chimeric antibody (antibody, human IgG1, kappa, V domains shown, Human-murine chimeric antibody, human IgG1/kappa constant regions) VH: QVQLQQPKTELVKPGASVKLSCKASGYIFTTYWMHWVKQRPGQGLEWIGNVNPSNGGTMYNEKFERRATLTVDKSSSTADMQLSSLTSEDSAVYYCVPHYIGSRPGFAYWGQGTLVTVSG VL: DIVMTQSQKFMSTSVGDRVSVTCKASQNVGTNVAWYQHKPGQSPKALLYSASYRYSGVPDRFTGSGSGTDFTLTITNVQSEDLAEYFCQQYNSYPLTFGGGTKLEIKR
Reply: 0.36
